Source: the supplement of paper PMC11208160

Test: recombinant barcode read abundance after kanamycin selection (control-corrected) (log10(CPM+1)); higher = more efficient recombination; sequences stand for … in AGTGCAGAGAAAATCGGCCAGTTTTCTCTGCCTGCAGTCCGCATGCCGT…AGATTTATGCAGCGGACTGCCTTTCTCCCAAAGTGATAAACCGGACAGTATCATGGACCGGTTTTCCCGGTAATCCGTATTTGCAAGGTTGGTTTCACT; site = the 11-nt target;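 note: IS621 recombinase and bridge RNA in Escherichia coli cells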
Where recombinant barcode read abundance (log10) equals or exceeds 0.09, the correct label is 1.0; where it does not, the label is 0.0.

GGTATAACTTGGGTTCTAACCTGTTGCCA (site GGTATAACTTG) :: 1.0

Now turn to the next sequence.
Form field: recombinant barcode read abundance (log10) at least 0.09? Entry: CGGAAGCCTTGGGTTCTAACCTGTTGCCT (site CGGAAGTCTAG)
1.0

---

Test: recombinant barcode read abundance after kanamycin selection (control-corrected) (log10(CPM+1)); higher = more efficient recombination; sequences stand for … in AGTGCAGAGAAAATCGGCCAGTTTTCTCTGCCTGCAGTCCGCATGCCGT…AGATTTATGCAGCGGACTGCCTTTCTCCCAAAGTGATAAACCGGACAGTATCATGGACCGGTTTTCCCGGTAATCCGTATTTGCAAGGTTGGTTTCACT; site = the 11-nt target
parameter.measured: recombinant barcode read abundance (log10)

TCTCGTCCTTGGGTTCTAACCTGTTGCTA (site TCTCGTCCTTA) :: 0.0623
CTAGGCCCTTGGGTTCTAACCTGTTGCCT (site CTAGGCCCTAG) :: 0.184
TACGTGTCTTGGGTTCTAACCTGTTGCCT (site TATGTGTCTAG) :: 0.103
CTATTTACTTGGGTTCTAACCTGTTGCCT (site CTACTTACTAG) :: 0.302

Now consider the entry below.
For record GGCGAGTCTTGGGTTCTAACCTGTTGCTA (site GACGAGTCTTA) the listed recombinant barcode read abundance (log10) is 1.4

---

Catalogue of recombinant barcode read abundance (log10) readings, one per entry.
Assay: recombinant barcode read abundance after kanamycin selection (control-corrected) (log10(CPM+1)); higher = more efficient recombination; sequences stand for … in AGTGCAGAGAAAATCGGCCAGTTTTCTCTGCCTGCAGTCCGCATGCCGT…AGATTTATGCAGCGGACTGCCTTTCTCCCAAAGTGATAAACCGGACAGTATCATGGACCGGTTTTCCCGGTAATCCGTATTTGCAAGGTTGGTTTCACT; site = the 11-nt target

Field: example entries. Status: answers known.
CGCTCGTCTTGGGTTCTAACCTGTTGCCT (site CGCTCGTCTAG) :: 0.00559
TCCAACACTTGGGTTCTAACCTGTTGCCG (site TCCAACACTCG) :: 0.574
ACGACTCCTTGGGTTCTAACCTGTTGCCT (site ACGACTCCTAG) :: 0.618
TGGCCCTCTTGGGTTCTAACCTGTTGCTC (site TGGCCCTCTTA) :: 0.0751

Now consider the entry below.
For record CTCGTAGCTTGGGTTCTAACCTGTTGCGG (site CTCGTAGCTCC) the listed recombinant barcode read abundance (log10) is 1.23

---

Catalogue of recombinant barcode read abundance (log10) readings, one per entry.
Assay: recombinant barcode read abundance after kanamycin selection (control-corrected) (log10(CPM+1)); higher = more efficient recombination; sequences stand for … in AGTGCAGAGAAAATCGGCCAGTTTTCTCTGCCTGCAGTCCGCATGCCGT…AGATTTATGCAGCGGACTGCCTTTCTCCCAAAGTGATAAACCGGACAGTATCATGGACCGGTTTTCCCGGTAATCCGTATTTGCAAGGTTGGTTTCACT; site = the 11-nt target
// response body must contain only the number

Field: example entries. Status: answers known.
CGTAGGACTTGGGTTCTAACCTGTTGCCT (site AGTAGGACTAG) :: 0.0846
ACGTATGCTTGGGTTCTAACCTGTTGCAT (site TAAATCACTCG) :: 0.0674
TGGAGTCCTTGGGTTCTAACCTGTTGCTT (site TGGAGTCCTAA) :: 0.605
GTTGGGGCTTGGGTTCTAACCTGTTGCGG (site CTTGGGCCTCC) :: 0.019

Now consider the entry below.
For record TGGTTCGCTTGGGTTCTAACCTGTTGCCT (site TGGTGCGCTAG) the listed recombinant barcode read abundance (log10) is 0.0185
